Recorded pest or weed control at 140 g/ha for the following molecules
- Tested on: test plant species
- protocol: Post-emergent herbicidal activity test (greenhouse, foliar spray, visual growth reduction)
- Format: in vivo
- measurement.setup: post-emergence, 336 h, canada thistle (Cirsium arvense), 14 Days After Application, 140 g ai/ha, read-out: Visual Growth Reduction (%) CIRAR

molecule: COC(=O)c1nc(-c2ccc(C3(C#N)CC3)cc2Cl)ccc1Cl [F236]
assay.target: test plant species
pest or weed control at 140 g/ha: 85 to 94%
--
molecule: COC(=O)c1nc(-c2cccc(F)c2OC)c(F)cc1Cl [F264]
assay.target: test plant species
pest or weed control at 140 g/ha: 30 to 44%
--
molecule: COC(=O)c1nc(-c2ccc(OC(F)F)cc2F)c(F)cc1Cl [F221]
assay.target: test plant species
pest or weed control at 140 g/ha: 95 to 100%

FYI, the data here is from patent US20230017045A1.
